Target: β-receptors of the heart (Felis catus, UniProt Q9TST6)
Construct: from tissue; host or cells: heart of the anesthetized, reserpine-pretreated, vagotomized cat (in vivo)
Sequence (Q9TST6 whole entry): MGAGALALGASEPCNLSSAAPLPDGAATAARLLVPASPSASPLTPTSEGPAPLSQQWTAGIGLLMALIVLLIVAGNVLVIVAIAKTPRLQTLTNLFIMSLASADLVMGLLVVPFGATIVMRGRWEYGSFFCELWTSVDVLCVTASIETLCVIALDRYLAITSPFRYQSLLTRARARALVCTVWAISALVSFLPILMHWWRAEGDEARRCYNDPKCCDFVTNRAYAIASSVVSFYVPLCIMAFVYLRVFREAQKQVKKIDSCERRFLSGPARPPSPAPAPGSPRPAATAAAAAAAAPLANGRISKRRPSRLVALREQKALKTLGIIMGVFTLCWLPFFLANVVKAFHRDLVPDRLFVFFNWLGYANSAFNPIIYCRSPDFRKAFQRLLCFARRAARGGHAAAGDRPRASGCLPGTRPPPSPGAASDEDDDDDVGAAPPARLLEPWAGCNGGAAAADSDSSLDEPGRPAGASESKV
Assay: β-blockade of isoprenaline heart rate response in reserpinized cat
Format: in vivo
Details: iv; reserpinized cat, i.v., 50% blockade of isoprenaline (usually 0.1 μg/kg) response; read-out: β-blockade heart rate ED50
metric name: log10 of ED50 (log10 of the value in mg/kg)
Log scale reminder: ED50 in mg/kg, then log10 taken.

Query: Give a short answer stating reported log10 of ED50 for COCCc1ccc(OCC(O)CNC(C)C)c(F)c1 (centres unmarked) [Example 13] .
Result: -1.30

Query: Give a short answer stating reported log10 of ED50 for COCCc1ccc(OCC(O)CNC(C)C)c(Cl)c1 (centres unmarked) [Example 2] .
Result: -1.00

Query: Give a short answer stating reported log10 of ED50 for C=CCc1cc(CCOC)ccc1OCC(O)CNC(C)C (centres unmarked) [Example 8] .
Result: -1.00

Query: Give a short answer stating reported log10 of ED50 for COCCCc1ccc(OCC(O)CNC(C)C)c(Cl)c1 (centres unmarked) [Example 5] .
Result: -0.52

Query: Give a short answer stating reported log10 of ED50 for COCCc1ccc(OCC(O)CNC(C)C)c(COC)c1 (centres unmarked) [Example 4] .
Result: -0.70

###

Target: β2-receptors of the smooth muscles (Felis catus)
Construct: from tissue; host or cells: vascular bed of the blood-perfused leg of the anesthetized cat, paw excluded (in vivo)
Experiment: β-blockade of isoprenaline peripheral vasodilator response (peripheral vascular resistance) in reserpinized cat
Format: in vivo
Details: iv, 50% blockade of isoprenaline (usually 0.1 μg/kg) response
metric name: ED50 (mg/kg)
Return type: number; implicit unit mg/kg.

Before answering, review these 5 worked examples.
In [3]: df
Out[3]:
                                   compound                       experimental_target  metric_name  test_result
0  COCCc1ccc(OCC(O)CNC(C)C)c(F)c1 (stereo not shown)  β2-receptors of the smooth muscles (Felis catus)         ED50          2.7
1  COCCc1ccc(OCC(O)CNC(C)C)c(COC)c1 (stereo not shown)  β2-receptors of the smooth muscles (Felis catus)         ED50            5
2  COCCc1ccc(OCC(O)CNC(C)C)c(Br)c1 (stereo not shown)  β2-receptors of the smooth muscles (Felis catus)         ED50            1
3  COCCc1ccc(OCC(O)CNC(C)C)c(Cl)c1 (stereo not shown)  β2-receptors of the smooth muscles (Felis catus)         ED50            3
4  C=CCc1cc(CCOC)ccc1OCC(O)CNC(C)C (stereo not shown)  β2-receptors of the smooth muscles (Felis catus)         ED50          0.8

Query: Give a short answer stating reported ED50 for COCCCc1ccc(OCC(O)CNC(C)C)c(Cl)c1 (stereo not shown) .
Result: 2

Query: Give a short answer stating reported ED50 for COCCCc1ccc(OCC(O)CNC(C)C)c(Br)c1 (stereo not shown) .
Result: 1.5

Query: Give a short answer stating reported ED50 for COCCc1ccc(OCC(O)CNC(C)(C)C)c(Cl)c1 (stereo not shown) .
Result: 1

Query: Give a short answer stating reported ED50 for COCc1ccc(OCC(O)CNC(C)C)c(OC)c1 (stereo not shown) .
Result: 3

###

Here, each record is paired with measured Emax data.
Target: β-receptors of the heart (Felis catus)
Construct: from tissue; host or cells: heart of the anesthetized, reserpine-pretreated, vagotomized cat (in vivo)
Experiment: Intrinsic activity on heart rate in reserpinized cat
Format: in vivo
Settings: iv, anesthetized, vagotomized, i.v., read-out: Intrinsic activity % of maximal isoprenaline heart rate
Return type: number; implicit unit %.

Before answering, review these 5 worked examples.
>>> df
                                   compound  test_result
0  COCCc1ccc(OCC(O)CNC(C)C)c(COC)c1 (stereo not drawn) [Example 4]            5
1  C=CCc1cc(CCCOC)ccc1OCC(O)CNC(C)C (stereo not drawn) [Example 10]            0
2  COCCCc1ccc(OCC(O)CNC(C)C)c(Br)c1 (stereo not drawn) [Example 6]            0
3  CSCCc1ccc(OCC(O)CNC(C)C)c(F)c1 (stereo not drawn) [Example 11]            0
4  COCCc1ccc(OCC(O)CNC(C)C)c(Br)c1 (stereo not drawn) [Example 1]            0

In the following, a different compound is considered.
Query: Give a short answer stating reported Emax for COCCc1ccc(OCC(O)CNC(C)C)c(F)c1 (stereo not drawn) [Example 13] .
Result: 0

###

Biological target: β-receptors of the heart (Felis catus)
Construct: from tissue; host or cells: heart of the anesthetized, reserpine-pretreated, vagotomized cat (in vivo)
Test: β-blockade of isoprenaline heart rate response in reserpinized cat
Format: in vivo
Conditions: iv; reserpinized cat, i.v., 50% blockade of isoprenaline (usually 0.1 μg/kg) response; read-out: β-blockade heart rate ED50
metric name: log10 ED50 (log10 of the value in mg/kg)
Log scale reminder: ED50 in mg/kg, then log10 taken.

Before answering, review these 5 worked examples.
In [3]: df
Out[3]:
                                   molecule  test_result
0  CSCCc1ccc(OCC(O)CNC(C)C)c(F)c1 (stereo not drawn)        -0.70
1  C=CCc1cc(CCCOC)ccc1OCC(O)CNC(C)C (stereo not drawn)        -0.52
2  COCCc1ccc(OCC(O)CNC(C)C)c(Br)c1 (stereo not drawn)        -1.52
3  COCCc1ccc(OCC(O)CNC(C)(C)C)c(Cl)c1 (stereo not drawn)        -1.52
4  COCc1ccc(OCC(O)CNC(C)C)c(OC)c1 (stereo not drawn)        -0.22

In the following, a different molecule is considered.
Query: Give a short answer stating reported log10 ED50 for CCCc1cc(CCOC)ccc1OCC(O)CNC(C)C (stereo not drawn) .
Result: -1.00

###

Here, each record is paired with measured ED50 data.
Biological target: β2-receptors of the smooth muscles (Felis catus, UniProt Q9TST5)
Construct: from tissue; host or cells: vascular bed of the blood-perfused leg of the anesthetized cat, paw excluded (in vivo)
Sequence (Q9TST5 whole entry, the tested form may be a part): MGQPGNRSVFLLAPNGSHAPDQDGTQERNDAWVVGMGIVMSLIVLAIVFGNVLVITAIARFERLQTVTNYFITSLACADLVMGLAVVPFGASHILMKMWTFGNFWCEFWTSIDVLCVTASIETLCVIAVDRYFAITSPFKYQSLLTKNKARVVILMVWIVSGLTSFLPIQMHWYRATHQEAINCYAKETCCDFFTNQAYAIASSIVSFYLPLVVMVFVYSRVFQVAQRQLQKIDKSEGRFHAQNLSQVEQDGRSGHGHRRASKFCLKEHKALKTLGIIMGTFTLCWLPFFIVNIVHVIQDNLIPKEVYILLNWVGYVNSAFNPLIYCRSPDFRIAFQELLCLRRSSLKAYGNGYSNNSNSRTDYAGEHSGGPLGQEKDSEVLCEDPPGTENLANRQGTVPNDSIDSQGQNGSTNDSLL
Experiment: β-blockade of isoprenaline peripheral vasodilator response (peripheral vascular resistance) in reserpinized cat
Format: in vivo
Conditions: iv, 50% blockade of isoprenaline (usually 0.1 μg/kg) response

Before answering, review these 3 worked examples.
                                   compound                       experimental_target  metric_name  test_result
0  CCCc1cc(CCOC)ccc1OCC(O)CNC(C)C (stereo not shown)  β2-receptors of the smooth muscles (Felis catus, UniProt Q9TST5)         ED50    0.5 mg/kg
1  C=CCc1cc(CCCOC)ccc1OCC(O)CNC(C)C (stereo not shown)  β2-receptors of the smooth muscles (Felis catus, UniProt Q9TST5)         ED50      1 mg/kg
2  CSCCc1ccc(OCC(O)CNC(C)C)c(F)c1 (stereo not shown)  β2-receptors of the smooth muscles (Felis catus, UniProt Q9TST5)         ED50      1 mg/kg

In the following, a different compound is considered.
Query: Give a short answer stating reported ED50 for COCCCc1ccc(OCC(O)CNC(C)C)c(OC)c1 (stereo not shown) .
Result: 5 mg/kg
